assay_system: T1, HLA-DR DRB1*0101 (human)
T1 chain 1: not shown
T1 chain 2: not shown
measurement_notes: radioligand inhibition, purified HLA-DR
protocol_conditions: remark: other sources report otherwise
pIC50: −log10 of the molar value.
observable: pIC50

• APTIRGDPECHLFYN [Peptide 9019.0022] = 5.39
• GPAYSGREIIYPNAS [CEA.92 peptide 9019.0111] = 5.03
• AEVLFRCPPCTPERL [Peptide 9019.0178] = 5.89
